Across several publications, the following IC50 results were reported for ULK1 (Homo sapiens, UniProt O75385).

# count of solved cases: 10
Chem Smiles | Observed Value
CNC(=O)c1ccccc1Nc1nc(Nc2ccc(N3CCOCC3)cc2OC)ncc1Cl | < 200 nM
Cc1nn(C2CCN(C(C)C)CC2)cc1Nc1ncc(C(F)(F)F)c(NCCCN2CCCCC2=O)n1 | 25 to 100 nM
COc1cc(Nc2ncc(Br)c(Nc3ccccn3)n2)cc(OC)c1OC | < 200 nM
Cc1cnc(Nc2ccc3c(c2)CCC(=O)N3)nc1NCc1cccc(S(C)(=O)=O)c1 | > 2000 nM
CNC(=O)c1ccccc1Nc1nc(Nc2cc(OC)c(OC)c(OC)c2)ncc1Cl | < 200 nM
CNC(=O)c1ccccc1Nc1nc(Nc2cc(OC)ccc2C)ncc1Br | < 200 nM
CS(=O)(=O)c1cccc(CNc2nc(Nc3ccc4c(c3)CCC(=O)N4)ncc2F)c1 | > 2000 nM
COc1cc(Nc2ncc(Br)c(Oc3cccc4ccncc34)n2)cc(OC)c1OC | > 2000 nM
Cc1nn(CCN2CCCCC2)cc1Nc1ncc(C(F)(F)F)c(NCCCN2CCCCC2=O)n1 | 100 to 500 nM
O=C(N[C@@H](C1CC1)C(F)(F)F)c1cc(-c2cnn3cc(Nc4ccccc4)cnc23)cs1 | 1 to 49 nM

Form field IC50 for item `CCc1nn(C2CCN(C(C)C)CC2)cc1Nc1ncc(C(F)(F)F)c(NCCCN2CCCOC2=O)n1` on ULK1 (Homo sapiens, UniProt O75385): 25 to 100 nM

Form field IC50 for item `O=C1CCCCN1CCCNc1nc(Nc2ccc(N3CCCNCC3)cc2)ncc1C(F)(F)F` on ULK1 (Homo sapiens, UniProt O75385): 1 to 25 nM

Form field IC50 for item `O=C1CCCc2cc(Nc3ncc(C(F)(F)F)c(NC4CC4)n3)ccc21` on ULK1 (Homo sapiens, UniProt O75385): < 200 nM

Form field IC50 for item `O=C1COCCCN1CCCNc1nc(Nc2ccc(N3CCOCC3)cc2C2CC2)ncc1C(F)(F)F` on ULK1 (Homo sapiens, UniProt O75385): 100 to 500 nM

Form field IC50 for item `CCN1CCOc2cc(Nc3ncc(C(F)(F)F)c(NC4CC4)n3)cnc21` on ULK1 (Homo sapiens, UniProt O75385): < 200 nM

Form field IC50 for item `CCc1cc(N2CCOCC2)ccc1Nc1ncc(Cl)c(NCCCN2CCCOCC2=O)n1` on ULK1 (Homo sapiens, UniProt O75385): > 500 nM

Form field IC50 for item `CCc1nn(C2CCNCC2)cc1Nc1ncc(Br)c(NCCCN2CCCCC2=O)n1` on ULK1 (Homo sapiens, UniProt O75385): 25 to 100 nM

Form field IC50 for item `O=C(N[C@@H](C1CC1)C(F)(F)F)c1cc(-c2cnn3cc(Nc4ccc(F)cc4)cnc23)cs1` on ULK1 (Homo sapiens, UniProt O75385): 1 to 49 nM

Form field IC50 for item `CCC(CC)NC(=O)c1cc(-c2cnn3cc(NC4CC4)cnc23)cs1` on ULK1 (Homo sapiens, UniProt O75385): 100 to 499 nM

Form field IC50 for item `CC(C)N1CCC(n2cc(Nc3ncc(C(F)(F)F)c(NCCCN4CCCCCC4=O)n3)cn2)CC1` on ULK1 (Homo sapiens, UniProt O75385): 1 to 25 nM

Form field IC50 for item `Cc1nn([C@@H]2CCN(C)C2)cc1Nc1ncc(Cl)c(NCCCN2CCCC2=O)n1` on ULK1 (Homo sapiens, UniProt O75385): > 500 nM
